B1: SNX8 (parent)
chain: LHQETQLIHVYLPLTSHILRAFVN

- Variants of: B1
- Protocol: protein stability index of a GFP-peptide fusion (GPS, HEK-293T) (PSI 1-6); higher = more stable;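 also: lentivirally expressed fusions sorted by FACS into six bins by GFP to DsRed ratio, PSI derived from sequencing read proportions per bin multiplied by bin number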
- Condition summary: c terminus: a fixed tail appended
For each record, write down the corresponding protein stability index.

## Input Supply recorded protein stability index for `LHWETQLIHVYLPLTSHILRAFVN` here.
## Output 2.73

## Input Supply recorded protein stability index for `LHQPTQLIHVYLPLTSHILRAFVN` here.
## Output 2.18

## Input Supply recorded protein stability index for `LHQLTQLIHVYLPLTSHILRAFVN` here.
## Output 2.8

## Input Supply recorded protein stability index for `LHQETQLIHVYLPLTSLILRAFVN` here.
## Output 1.69

## Input Supply recorded protein stability index for `LHQETQLIHVNLPLTSHILRAFVN` here.
## Output 2.81

## Input Supply recorded protein stability index for `AHQETQLIHVYLPLTSHILRAFVN` here.
## Output 2.75

## Input Supply recorded protein stability index for `LQQETQLIHVYLPLTSHILRAFVN` here.
## Output 2.5

## Input Supply recorded protein stability index for `LHQETQLIHVYLPLTSHILVAFVN` here.
## Output 1.72

## Input Supply recorded protein stability index for `LHQETQLIHVYLPLTSHIYRAFVN` here.
## Output 3.67

## Input Supply recorded protein stability index for `LHQETQGIHVYLPLTSHILRAFVN` here.
## Output 2.15

The origin of these recorded values is the supplement of paper PMC10567573.
